So I've got a bunch of molecules here, and I need their logP values.
condition_parameters: octanol/water

Some solved entries appear below for comparison.
What does the record list as logP for O=[N+]([O-])c1ccc2ccc3c4ccccc4cc4ccc1c2c43 ?
5.87

Moving on to the next molecule: O=[N+]([O-])c1ccc2c(c1)Nc1cccc([N+](=O)[O-])c1N2
2.29

Moving on to the next molecule: Cn1ncc2cc([N+](=O)[O-])ccc21
1.77

Moving on to the next molecule: O=[N+]([O-])c1ccc2c(c1)Cc1cc(Cl)ccc1-2
4.68

Moving on to the next molecule: O=[N+]([O-])c1cccc(F)c1
1.9

Note: attention shifts to another entry.
What does the record list as logP for O=[N+]([O-])c1ccc2ccc3c([N+](=O)[O-])ccc4ccc1c2c43 ?
4.44

Recorded values, source ChEMBL document CHEMBL1125820.
